We begin with a simple list: items and their reported ELISA signal relative to background.
target: T1, FX activation peptide 12-mer FDLLDFNQTQPE (human); assay: peptide ELISA
T1 peptide: FDLLDFNQTQPE-biotin
Ends that are not written are not given here.
Respond using a number only.

Reference set (2 entries):
binder	ELISA signal relative to background
Nb 702C12 (VHH, monovalent Nanobody; not shown: C-terminal FLAG3 and HIS6 tag) VHH: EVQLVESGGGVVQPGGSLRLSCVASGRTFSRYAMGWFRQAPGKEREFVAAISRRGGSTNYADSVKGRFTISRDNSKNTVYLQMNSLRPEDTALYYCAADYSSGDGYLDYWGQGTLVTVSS	4.38
Nb 729C08 (VHH, monovalent Nanobody; also called Nb 729008; not shown: C-terminal FLAG3 and HIS6 tag) VHH: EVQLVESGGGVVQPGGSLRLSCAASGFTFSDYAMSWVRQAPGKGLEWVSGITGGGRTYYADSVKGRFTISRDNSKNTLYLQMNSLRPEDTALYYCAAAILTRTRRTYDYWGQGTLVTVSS	1.15

Exercise: Quick one: give measured ELISA signal relative to background for Nb 701D07 (VHH, monovalent Nanobody; not shown: C-terminal FLAG3 and HIS6 tag) VHH: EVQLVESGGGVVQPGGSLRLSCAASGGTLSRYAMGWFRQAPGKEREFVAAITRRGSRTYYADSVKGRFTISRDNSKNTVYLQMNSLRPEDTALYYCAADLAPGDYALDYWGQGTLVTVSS
Key: 0.99

Exercise: Quick one: give measured ELISA signal relative to background for Nb 730C03 (VHH, monovalent Nanobody; also called Nb 730003; not shown: C-terminal FLAG3 and HIS6 tag) VHH: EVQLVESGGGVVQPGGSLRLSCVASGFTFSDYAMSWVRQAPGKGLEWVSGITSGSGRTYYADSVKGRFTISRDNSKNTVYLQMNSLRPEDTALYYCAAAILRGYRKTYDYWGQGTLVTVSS
Key: 1.28

Exercise: Quick one: give measured ELISA signal relative to background for Nb 501A02 (VHH, monovalent control Nanobody; also called control Nanobody; not shown: C-terminal FLAG3 and HIS6 tag) VHH: EVQLVESGGGLVQPGGSLRLSCAASGFTFSNYEMSWVRQAPGKGLEWVSDIGSGGGVSTYYADSVKGRFTISRDNAKNTLYLQMNSLKPEDTAMYYCARGWTYGSDGMDYWGKGTLVTVSS
Key: 0.85

Exercise: Quick one: give measured ELISA signal relative to background for Nb 701B09 (VHH, monovalent Nanobody; also called Nb 701609; not shown: C-terminal FLAG3 and HIS6 tag) VHH: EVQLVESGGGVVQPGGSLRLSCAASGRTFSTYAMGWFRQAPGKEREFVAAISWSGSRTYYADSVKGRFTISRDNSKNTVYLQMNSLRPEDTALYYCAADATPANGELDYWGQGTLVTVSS
Key: 3.27
